# experiment_description: blockers of RIG-like receptor reporter activation – cell-based, Sendai virus stimulus, luciferase, 10K MLSCN set, TLR/RLR signaling modifier project, primary screen (AID 602276);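 also: firefly luciferase from ISG56 promoter only with Renilla not read in this screen; 0% = Sendai virus plus DMSO and 100% = medium plus DMSO without virus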
# condition_notes: HEK293 RL24 IRF3 luciferase reporter, at 10 µM, stronger effect = higher value
observable: inhibition (%)
Reply with just the number (in %).

Kindly indicate its recorded inhibition. Item: CC(=O)NC(C)C(=O)OCC(=O)Nc1ccc(Br)cc1 (centres undefined) 20

Please list inhibition recorded for the compound CCN1CCN(c2nc3c(c(=O)n(C)c(=O)n3C)n2CCSc2ncccn2)CC1 0.292

Give me measured inhibition, please, for this compound: Nc1cc(-c2ccccc2)ccc1O -0.254

Retrieve inhibition measured for Cn1c(=O)[nH]c(=O)c2c1nc(N1CCCCCC1)n2CCCSc1nc2ccccc2o1 and print it. 14.2

Look up inhibition of CN1CCN(c2nc3c(c(=O)[nH]c(=O)n3C)n2CCOc2ccccc2)CC1 and report it. 3.18

Report measured inhibition; entry is C=CCNC(=O)c1ccc(Cl)cc1Cl 0.0277

Read off the recorded inhibition for Cc1ccc(NC(=O)CCC(=O)OCC(F)(F)C(F)F)cc1 3.35

Kindly indicate its recorded inhibition. Item: COc1ccc(NS(=O)(=O)c2coc(C(N)=O)c2)cc1Cl 6.28

# return recorded inhibition for entry O=c1cc(-c2ccccc2)[nH]c2nc3ccccc3n12 40.6

Using known records, supply inhibition for c1cc2c(cc1C1CCCN1)OCCCO2 (centres undefined) -9.84

State its inhibition: CCC1(C)Cc2c(sc3nc(SCC(=O)O)[nH]c(=O)c23)CO1 (centres undefined) 1.92

Note down inhibition recorded for COc1ccc(NC(=O)CSc2nc(C)cc(C(F)(F)F)n2)cc1 14.9

Answer with reported inhibition of CCOc1cc(N2CCOCC2)c(OCC)cc1NC(=O)CSc1cccc[n+]1[O-] 15.1

Consider the compound Cc1cc(Br)ccc1NC(=O)CCN1C(=O)c2ccncc2C1=O and give its recorded inhibition. -13.8

Please look at this compound and report its inhibition: Cc1ccc(-n2nc(-c3cccs3)cc2C(=O)NCC2CCCO2)c(C)c1 (centres undefined) 7.58

Output measured inhibition for this item: CC(=O)c1cccc(NC(=O)CCNS(=O)(=O)c2cccc3nsnc23)c1 11.2

Retrieve inhibition measured for CCCn1c(SCC(=O)N2CCc3ccccc3C2)nc2c1c(=O)n(C)c(=O)n2C and print it. 2.01

Recall and state the measured inhibition for COc1ccc(C2C(C(C)=O)=C(O)C(=O)N2C)c(OC)c1 (centres undefined) . 5.02

Give a short answer stating reported inhibition for CCN(CC)S(=O)(=O)c1ccc2c(c1)nc(SCn1nnc3ccccc3c1=O)n2CC . 15.4

Kindly indicate its recorded inhibition. Item: Cc1nnc(Nc2ccccn2)c2ccccc12 8.64

Fill in reported inhibition for this entry: Cc1nc2cc(CO)ccc2n1C 2.69

Give the value of inhibition reported for the following: CCCNC(=O)c1cc(-c2ccco2)on1 -19

Find the measured inhibition of O=C(NCc1ccccn1)Nc1ccc2c(c1)OCO2 and report it. 10.3

Give the reported value of inhibition for this record: COc1nc(-c2ccc(Cl)cc2)ccc1-c1noc(-c2ccncc2)n1 6.3

###

# experiment_description: inhibitors of TNFa-induced NFkB p65 translocation, primary screen, imaging, HUVEC, MLSMR starter and 10KST1 sets (AID 438);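 also: compound added about 3h40 before a 20 min TNFalpha stimulation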
# condition_notes: HUVEC TNFa-induced p65 nuclear translocation; measured here: nuclei count (cytotoxicity indicator), at 2.08 µM
observable: cell count
// keep it numeric: no unit symbol after the value

Specify reported cell count for the molecule shown: Nn1cc(-c2ccccc2)nc1SCC(=O)N1CCN(S(=O)(=O)c2ccccc2)CC1 341

Please report cell count for the following molecule: CCSc1nc2ccccc2n1CCC(=O)O 615

Dear colleague, please send me the reported cell count for Cc1ccc(OCC(O)Cn2c(NCCc3ccccc3)nc3c2c(=O)[nH]c(=O)n3C)cc1 (stereo not drawn) when you can. 421

Determine from records and report cell count for NC1=NC(c2ccc(Cl)cc2)n2c(nc3ccccc32)N1 (stereo not drawn) 780

Note down cell count recorded for Cc1ccc(NC(=O)COC(=O)c2ccn(C)n2)cc1 521

Name the recorded cell count of the item CCOC(=O)c1[nH]c2ccc(C)cc2c1N=C(C)N(C)C in your answer. 579

Tell me its cell count given CCOC(=O)c1[nH]c2ccc(C)cc2c1NC(=O)CN1CCCCC1 as the entry. 672

Respond only with cell count recorded for Cc1ccc(S(=O)(=O)N(CC(=O)N2CCC(C(N)=O)CC2)Cc2ccc(F)cc2)cc1 473

Give cell count for the following molecule: CC1(C)NC(=O)N(CC(O)COc2ccc(-c3ccccc3)cc2)C1=O (stereo not drawn) 260

Give me measured cell count, please, for this molecule: COC(=O)c1c(N)n(-c2cc(OC)cc(OC)c2)c2nc3ccccc3nc12 700

Identify cell count associated with the molecule Cn1cccc1-c1cc(C(=O)O)[nH]n1 825

Write down cell count measured for item CCN1C(=O)/C(=C2\C=Cc3ccccc3N2CC)OC1=S 695

Look up and report measured cell count for this entry: CC(=O)N1CCC2(CC1)CC(=O)c1cc(OCC(=O)NCc3ccco3)ccc1O2 376

Report cell count, nothing else, for this molecule: COCC(=O)N(Cc1ccccc1)c1ccccn1 354

Return the recorded cell count value; entry: CC(=O)c1c(NCCc2ccccc2)cc(C)oc1=O 577

Output measured cell count for this item: CCc1nnc(NC(=O)CSc2nnc(-c3ccccc3OC)n2-c2ccccc2)s1 276

Supply measured cell count of CCc1cc2c(=O)c(-c3nc4ccccc4[nH]3)coc2c(CN2CCC(C)CC2)c1O in your reply. 708

State its cell count: CCOC(=O)c1sc2nc(SCC#N)n(CCCN3CCCC3=O)c(=O)c2c1C 399

Look up and report measured cell count for this entry: Cc1[nH]n(C(N)=S)c(=O)c1C(c1ccccc1)C(C#N)C#N (stereo not drawn) 694

# return recorded cell count for entry O=C(O)C1CC(=O)N(c2ccc(OCc3ccccc3Cl)cc2)C1 (stereo not drawn) 339

# return recorded cell count for entry CC1(C)CC(=O)C(C=NCc2ccc3c(c2)OCO3)=C(O)C1 665

Return value of cell count for input Cc1nc(SCC(=O)NCc2ccco2)c2c(C)c(C)sc2n1 , no commentary. 709

Tell us which cell count value is on record for Nc1nnc(-c2cn(-c3ccccc3)nc2-c2ccccc2)o1 523

###

# experiment_description: inhibitors of TNFa-induced NFkB p65 translocation, primary screen, imaging, HUVEC, MLSMR starter and 10KST1 sets (AID 438);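 also: compound added about 3h40 before a 20 min TNFalpha stimulation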
# condition_notes: HUVEC TNFa-induced p65 nuclear translocation; measured here: nuclei count (cytotoxicity indicator), at 2.08 µM
observable: cell count

Quick one: give measured cell count for CC(C)(C)NC(=O)COC(=O)c1ccc(O)cc1 714

Please report the measured cell count for Cc1cc(NC(=O)C23CCC(C)(c4nc5cc(Cl)c(Cl)cc5nc42)C3(C)C)no1 (stereo unspecified) 409

Indicate the recorded cell count value for this compound: Cc1c(NC(=O)c2cnn3c2NC(c2ccco2)CC3C(F)(F)F)c(=O)n(-c2ccccc2)n1C (stereo unspecified) 436

Give the reported cell count for this compound. CC(=O)N1CCN(c2ccc(NC(=O)c3ccc(C(C)(C)C)cc3)cc2)CC1 816

Check the records and state cell count for Cn1c(=O)c2c(nc(CN3CCc4ccccc4C3)n2Cc2cccc(Cl)c2)n(C)c1=O 646

Please supply the value of reported cell count for the item CCn1c(-c2cc(Br)ccc2O)n[nH]c1=S 623

###

# experiment_description: reduction of polyQ htt aggregates in cells – imaging, exon1htt(103Q)mCFP cells, high-content imaging, primary screen (AID 483);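 also: compound exposure lasted 3 days before fixation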
# condition_notes: exon1htt(103Q)mCFP cell line, aggregate imaging, at 2 µM; stronger effect = higher value
observable: inhibition of aggregation (%)
Kindly answer with a numeric value in %, unit omitted.

Please report inhibition of aggregation for the following compound: COc1cc2[nH]c(=O)n(CCC(=O)N3CCc4ccccc4C3)c(=O)c2cc1OC 6.9

Identify inhibition of aggregation associated with the compound CCOC(=O)C(C)Sc1nc2c(cnn2-c2ccc(C)cc2)c(=O)[nH]1 (centres undefined) 6.8

For the compound CCCCN(c1ccccc1)S(=O)(=O)c1ccc2c(c1)CCN2C(=O)CCC(=O)O , report inhibition of aggregation. 7.8

Look up and state reported inhibition of aggregation for Cc1cc(C)c2nc(C(F)(F)F)nc(NCCCN3CCCC3=O)c2c1 21.4

Quote inhibition of aggregation reported for S=c1[nH]c2ccc(Cl)cc2[nH]1 please. -4

Item COc1ccccc1OCCNC(=O)c1cccs1 : provide inhibition of aggregation 12.7

# return recorded inhibition of aggregation for entry CC(=O)C1=C(O)C(=O)N(Cc2cccnc2)C1c1ccccc1 (centres undefined) -8.8

Provide measured inhibition of aggregation value, entry: COc1ccc(-c2cc(C(=O)Nc3ccc(C)cc3)no2)cc1 -11.2

Provide only the value of recorded inhibition of aggregation for O=C(Nc1ccc(-c2nc3ncccc3o2)cc1)c1ccc(Br)o1 -3.8

Answer with reported inhibition of aggregation of CC(C)n1nnnc1SCC(=O)Nc1ccccc1N1CCOCC1 -6.6

Find the measured inhibition of aggregation of Cc1cc2ncc(-c3ccc(Cl)cc3)c(N)n2n1 and report it. -6

Given the compound CCOC(=O)N1CCC(NC(=O)Cc2ccc(-n3c(=O)[nH]c4ccccc4c3=O)cc2)CC1 , write its reported inhibition of aggregation. -8.3

Given COc1ccccc1N1CCN(C(=O)C2CCN(S(=O)(=O)c3ccc(F)cc3)CC2)CC1 , respond with its inhibition of aggregation. 6.6

Assign inhibition of aggregation to the following record: COc1ccc(C2=CC(=O)OC3(CCCCC3)O2)cc1 -4.6

Indicate the recorded inhibition of aggregation value for this compound: Cc1cc2c(c(=O)n1C)C(Cc1ccccc1)C(C#N)=C(N)O2 (centres undefined) 24.9

Output inhibition of aggregation of Cc1cc(=O)[nH]c(S/C=C/c2ccccc2)n1 -8.6

Quick one: give measured inhibition of aggregation for c1nc(NCC2(N3CCOCC3)CCCCC2)c2ccsc2n1 -2.2

Using the record for Cc1ccc(C)c2[nH]c(=O)c(CCNC(=O)c3ccc(S(=O)(=O)N(C)C)cc3)cc12 , state its measured inhibition of aggregation. 15

Give the reported inhibition of aggregation for this compound. COc1cc(Cn2c(-c3nonc3N)nc3ccccc32)ccc1C -18.3

Read off the recorded inhibition of aggregation for CCOC(=O)C1CCCN(C(=O)c2cccs2)C1 (centres undefined) 13.3

Answer with the recorded inhibition of aggregation of O=c1c2cnn(-c3ccccc3)c2ncn1/N=C/c1ccncc1 only. 3.3

// Input: CC(C)(C)c1cc(NS(=O)(=O)c2ccc3c(c2)OCCO3)on1 . Output its inhibition of aggregation only. 5.3

Output measured inhibition of aggregation for this item: O=C(c1ncc[nH]1)c1ccccc1C(=O)N1CCOCC1 27.9

Consider the compound CCCCOC(=O)c1cccc(NC(=O)CC)c1 and give its recorded inhibition of aggregation. -8.8
